# credit: patent US20230113037A1

target: AHR (Mus musculus, UniProt P30561); test: In vitro assay 3: antagonism in mouse cell line (AHR transactivation, firefly luciferase reporter, kynurenic acid prestimulated); format: cell-based; settings: mouse Hepa 1c1c7 cells, 200 μM kynurenic acid, 20 hours, read-out: AHR Antagonism Mouse IC50
Sequence (P30561 whole entry P471L/N533S/M589L, form open): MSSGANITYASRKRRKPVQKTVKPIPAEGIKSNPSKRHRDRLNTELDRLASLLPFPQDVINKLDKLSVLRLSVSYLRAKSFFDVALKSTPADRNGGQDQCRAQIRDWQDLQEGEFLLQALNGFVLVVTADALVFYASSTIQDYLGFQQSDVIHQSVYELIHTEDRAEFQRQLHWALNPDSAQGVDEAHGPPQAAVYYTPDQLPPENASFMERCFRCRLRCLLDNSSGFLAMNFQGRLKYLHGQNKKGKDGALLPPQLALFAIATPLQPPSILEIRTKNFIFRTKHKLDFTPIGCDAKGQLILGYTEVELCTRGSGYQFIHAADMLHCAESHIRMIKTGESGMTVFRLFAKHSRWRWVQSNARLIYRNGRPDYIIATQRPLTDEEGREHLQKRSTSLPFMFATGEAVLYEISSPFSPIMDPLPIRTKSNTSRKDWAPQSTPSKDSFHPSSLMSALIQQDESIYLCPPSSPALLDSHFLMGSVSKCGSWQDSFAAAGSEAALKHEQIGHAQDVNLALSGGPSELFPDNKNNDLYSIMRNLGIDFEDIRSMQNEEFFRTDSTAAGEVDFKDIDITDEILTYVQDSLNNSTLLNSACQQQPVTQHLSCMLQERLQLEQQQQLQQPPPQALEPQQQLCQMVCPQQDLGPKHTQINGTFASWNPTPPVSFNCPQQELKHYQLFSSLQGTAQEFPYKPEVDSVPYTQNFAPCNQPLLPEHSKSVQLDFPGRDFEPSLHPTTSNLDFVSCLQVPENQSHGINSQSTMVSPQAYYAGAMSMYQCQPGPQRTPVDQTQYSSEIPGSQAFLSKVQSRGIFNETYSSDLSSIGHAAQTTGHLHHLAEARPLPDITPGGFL
pIC50: −log10 of the molar value.
measuredEndpoint: pIC50

COc1ccc(-c2nc3c4cccc(Br)c4nc(N[C@@H]4CCCCNC4=O)n3n2)cc1    8.91

(P) O=C1NCCCC[C@H]1Nc1nc2ccccc2c2nc(-c3ccccc3OC(F)F)nn12
(Q) O=C1NCCCC[C@H]1Nc1nc2c(C(F)(F)F)cccc2c2nc(-c3cn(C4CC4)nc3C(F)F)nn12
(R) COc1ccc(-c2nc3c4ccc(Br)cc4nc(N[C@@H]4CCCCNC4=O)n3n2)cc1
(S) CNC(=O)[C@@H](C)Nc1nc2ccccc2c2nc(-c3cccc(OC)c3)nn12
Data request: Rank the 4 compounds: largest pIC50 first, smallest last. List the labels in the requested order.
Data returned: P, Q, S, R
